Molecular target: T1, human VISTA expressed on cells (human, UniProt Q9H7M9 33-295)
T1 sequence: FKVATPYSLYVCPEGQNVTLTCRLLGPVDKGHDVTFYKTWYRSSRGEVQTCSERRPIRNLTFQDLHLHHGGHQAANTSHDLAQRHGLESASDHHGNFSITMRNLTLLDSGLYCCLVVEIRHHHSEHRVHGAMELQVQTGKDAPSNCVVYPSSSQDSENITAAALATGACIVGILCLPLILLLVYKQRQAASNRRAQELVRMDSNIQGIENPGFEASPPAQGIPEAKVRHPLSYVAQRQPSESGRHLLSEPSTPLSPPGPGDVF
Experiment: cell-based or functional assay
Parameter EC50 IFNγ production, MLR: see the listing below.

Binder	EC50 IFNγ production, MLR (µg/mL)
VSTB95 (antibody, human IgG1, kappa, V domains shown) VH: EVQLVESGGGLVQPGGSLRLSCAASGFTFRNYGMSWVRQAPGKGLEWVASIISGGSYTYYPDSVKGRFTISRDNAKNSLYLQMNSLRAEDTAVYYCARIYDHDGDYYAMDYWGQGTTVTVSS VL: DIVMTQSPLSLPVTPGEPASISCRSSQSIVHSNGNTYLEWYLQKPGQSPQLLIYKVSNRFSGVPDRFSGSGSGTDFTLKISRVEAEDVGVYYCFQGSHVPWTFGQGTKLEIKR	1.67
VSTB50 (antibody, human IgG1, kappa, V domains shown) VH: QVQLVQSGSELKKPGASVKVSCKASGYTFTNYGLNWVRQAPGQGLEWMGWINPYTGEPTYADDFKGRFVFSLDTSVSTAYLQICSLKAEDTAVYYCAREGYGNYIFPYWGQGTLVTVSS VL: DIVMTQTPLSLSVTPGQPASISCRASESVDTYANSLMHWYLQKPGQPPQLLIYRASNLESGVPDRFSGSGSGTDFTLKISRVEAEDVGVYYCQQTNEDPRTFGQGTKLEIKR	1.14
VSTB116 (antibody, human IgG1, kappa, V domains shown) VH: QVQLVQSGAEVKKPGSSVKVSCKASGGTFSSYAISWVRQAPGQGLEWMGGIIPIFGTANYAQKFQGRVTITADESTSTAYMELSSLRSEDTAVYYCARSSYGWSYEFDYWGQGTLVTVSS VL: DIQMTQSPSSLSASVGDRVTITCRASQSINTNLNWYQQKPGKAPKLLIYAASSLQSGVPSRFSGSGSGTDFTLTISSLQPEDFATYYCQQARDTPITFGQGTKVEIKR	0.69
